Assay Notes: In-vitro cleavage of allopurinol derivatives to allopurinol in 80% human plasma (pH 7.4) at 37° C
Format: in vitro ADME
Condition Summary: 80% plasma, pH 7.4, 37° C, read-out: Half-time (t0.5) of the conversion to allopurinol, 80% human plasma (converted)
Where a name gives a salt, the structure may show the parent alone.
Answer each item with its documented half-life.

### Prompt Any idea what half-life was measured for CC(N)C(=O)OCn1cc2c(=O)n(COC(=O)C(C)N)cnc2n1 (racemic) [2,5-bis(DL-Alanyloxymethyl)allopurinol, (dihydrobromide)] ?
### Response < 1 min

### Prompt Could you share which half-life value was measured for O=C(OCn1ncc2c(=O)[nH]cnc21)c1ccccc1 [1-(Benzoyloxymethyl)allopurinol] ?
### Response 4 min

### Prompt Name the reported half-life value associated with the compound CN(C)CC(=O)n1ncc2c(=O)[nH]cnc21 [1-(N,N--Dimethylglycyl)allopurinol, (hydrochloride)]
### Response < 1 min

### Prompt Reported half-life for CC(=O)n1ncc2c(O)ncnc21 [1-(Acetyl)allopurinol] : what is it?
### Response 6 min

### Prompt Any idea what half-life was measured for CC(=O)OCn1cc2c(=O)n(COC(C)=O)cnc2n1 [2,5-bis(Acetoxymethyl)allopurinol] ?
### Response 51 min

### Prompt Record request: half-life value, item CCN(CC)CC(=O)OCn1ncc2c(=O)[nH]cnc21 [(hydrochloride)]
### Response 10 min

### Prompt Data request, read-out half-life, for NC(C(=O)OCn1ncc2c(=O)[nH]cnc21)c1ccccc1 (racemic) [1-(DL-Phenylglycyloxymethyl)allopurinol, (hydrobromide)]
### Response 3 min

### Prompt # query: half-life of entry CCCCNC(=O)n1ncc2c(=O)[nH]cnc21 [1-(N--Butylcarbamoyl)allopurinol, 1-(N-Butylcarbamoyl)allopurinol]
### Response 90 min

### Prompt Entry under review: NCC(=O)OCn1ncc2c(=O)[nH]cnc21 [1-(Glycyloxymethyl)allopurinol, (hydrochloride)] . Reported half-life?
### Response 9 min

### Prompt Which measured half-life value corresponds to CC(N)C(=O)OCn1ncc2c(=O)[nH]cnc21 (racemic) [(hydrobromide)] ?
### Response 11 min

### Prompt GET /values?readout=half-life&item= CCCN(CCC)CC(=O)OCn1ncc2c(=O)[nH]cnc21 [(hydrochloride)]
### Response 12 min

----------
Assay Notes: In-vitro cleavage of allopurinol derivatives to allopurinol in pH 7.4 buffer at 37° C
Assay type: physicochemical
Condition Summary: read-out: Half-time (t0.5) of the conversion to allopurinol, pH 7.4 buffer (converted)
Counter-ions that a name gives are not always drawn.
Could you please report measured half-life for the items listed next?
API: value field is a number in min; no unit string.

### Prompt I'd like to know its half-life. The molecule in question is NC(Cc1ccccc1)C(=O)OCn1ncc2c(=O)[nH]cnc21 (racemic) [1-(DL-Phenylalanyloxymethyl)allopurinol, (hydrobromide)]
### Response 40

### Prompt So what's the measured half-life for this one? CC(N)C(=O)OCn1ncc2c(=O)[nH]cnc21 (racemic) [(hydrobromide)]
### Response 15

### Prompt What measured half-life goes with O=C(c1ccccc1)n1ncc2c(=O)[nH]cnc21 [1-(Benzoyl)allopurinol] ?
### Response 20

### Prompt Look up half-life for this molecule: CCCC(=O)OCn1cc2c(=O)n(COC(=O)CCC)cnc2n1 [2,5-bis(Butyryloxymethyl)allopurinol]
### Response 2100

### Prompt Which value of half-life has been reported for O=C(OCn1ncc2c(=O)[nH]cnc21)c1cccnc1 [1-(Nicotinoyloxymethyl)allopurinol] in the records?
### Response 1560

### Prompt What does the record list as half-life for CC(=O)n1ncc2c(O)ncnc21 [1-(Acetyl)allopurinol] ?
### Response 26

### Prompt Give the measured half-life of CCCN(CCC)CC(=O)OCn1ncc2c(=O)[nH]cnc21 [(hydrochloride)] .
### Response 50

### Prompt // query half-life value for entry CCCC(=O)OCn1ncc2c(=O)[nH]cnc21 [1-(Butyryloxymethyl)allopurinol]
### Response 11600

### Prompt Recorded half-life for CCCC(=O)OCn1cnc2c(cnn2COC(=O)CCC)c1=O [1,5-bis(Butyryloxymethyl)allopurinol] , please?
### Response 1500

### Prompt Which value of half-life has been reported for NCC(=O)OCn1ncc2c(=O)[nH]cnc21 [1-(Glycyloxymethyl)allopurinol, (hydrochloride)] in the records?
### Response 26

### Prompt What half-life value was documented for this molecule, CN(C)CCCC(=O)OCn1ncc2c(=O)[nH]cnc21 [(hydrochloride)] ?
### Response 145

### Prompt Reported half-life, molecule NC(C(=O)OCn1ncc2c(=O)[nH]cnc21)c1ccccc1 (racemic) [1-(DL-Phenylglycyloxymethyl)allopurinol, (hydrobromide)] : ____
### Response 20

### Prompt Record request: half-life value, item CN(C)CC(=O)OCn1ncc2c(=O)[nH]cnc21 [(hydrochloride)]
### Response 72

### Prompt Give its half-life value. Item: CCN(CC)C(C)C(=O)OCn1ncc2c(=O)[nH]cnc21 (racemic) [(hydrochloride)]
### Response 21

### Prompt # lookup: half-life of CCCC(=O)OCn1cc2c(=O)[nH]cnc2n1 [2-(Butyryloxymethyl)allopurinol]
### Response 3240

### Prompt Fill blank: measured half-life of the molecule CCN(CC)CC(=O)OCn1ncc2c(=O)[nH]cnc21 [(hydrochloride)] is ____.
### Response 49

### Prompt Name the reported half-life value associated with the molecule CN(C)CC(=O)n1ncc2c(=O)[nH]cnc21 [1-(N,N--Dimethylglycyl)allopurinol, (hydrochloride)]
### Response 1.5

### Prompt Give the measured half-life of CC(C)C[C@H](N)C(=O)OCn1ncc2c(=O)[nH]cnc21 [1-(L-Leucyloxymethyl)allopurinol, (hydrobromide)] .
### Response 17

Numbers sourced from patent US4694006A.
